# Test system: Bacillus subtilis
# test_protocol: Antimicrobial activity against Bacillus subtilis by CLSI method
# Assay type: functional
# conditions_used: Bacillus subtilis; read-out: MIC100
For each record, write down the corresponding MIC.
All answers are understood in µg/mL, so give the number only.

Input line: Reported MIC for Bacillus subtilis, given CC(=O)OCC1=C(C(=O)[O-])N2C(=O)[C@@H](NC(=O)CCC3C(=O)N(c4ccc(C)c(C)c4)C3c3ccccc3)[C@H]2SC1.[Na+] (mixture of isomers) ?
Output line: 2

Input line: # repeat for COc1ccc(N2C(=O)C(CC(=O)N[C@@H]3C(=O)N4C(C(=O)[O-])=C(COC(C)=O)CS[C@H]34)C2c2ccccc2)cc1.[Na+] (mixture of isomers)
Output line: 0.75

Input line: # repeat for COc1ccc(N2C(=O)C(CC(=O)N[C@@H]3C(=O)N4C(C(=O)[O-])=C(COC(C)=O)CS[C@H]34)C2c2ccc([N+](=O)[O-])cc2)cc1.[Na+] (mixture of isomers)
Output line: 32

Input line: # repeat for COc1ccc(N2C(=O)C(CC(=O)N[C@@H]3C(=O)N4C(C(=O)[O-])=C(COC(C)=O)CS[C@H]34)C2c2ccc(Cl)cc2)cc1.[Na+] (mixture of isomers)
Output line: 32

====

# Tested on: Staphylococcus aureus
# test_protocol: Antimicrobial activity against Staphylococcus aureus by CLSI method
# Assay type: functional
# conditions_used: Staphylococcus aureus; read-out: MIC100
observed_property: log10(MIC) (log10 of the value in µg/mL)
Scale type: logarithmic (base 10). Underlying MIC unit: µg/mL.

Input line: Reported log10(MIC) for Staphylococcus aureus, given COc1ccc(N2C(=O)C(CCCCCC(=O)N[C@@H]3C(=O)N4C(C(=O)[O-])=C(COC(C)=O)CS[C@H]34)C2c2ccccc2)cc1.[Na+] (mixture of isomers) ?
Output line: 0.24

Input line: # repeat for CC(=O)OCC1=C(C(=O)[O-])N2C(=O)[C@@H](NC(=O)CCCCCCCC3C(=O)N(c4ccccc4)C3c3ccccc3)[C@H]2SC1.[Na+] (mixture of isomers)
Output line: 0.00

Input line: # repeat for COc1ccc(N2C(=O)C(CC(=O)N[C@@H]3C(=O)N4C(C(=O)[O-])=C(COC(C)=O)CS[C@H]34)C2c2ccccc2)cc1.[Na+] (mixture of isomers)
Output line: 0.18

Input line: # repeat for COc1ccc(N2C(=O)C(CC(=O)N[C@@H]3C(=O)N4C(C(=O)[O-])=C(COC(C)=O)CS[C@H]34)C2c2ccc(Cl)cc2)cc1.[Na+] (mixture of isomers)
Output line: 1.51

Input line: # repeat for CO/N=C(\C(=O)N[C@@H]1C(=O)N2C(C(=O)O)=C(CSc3nc(=O)c(=O)[nH]n3C)CS[C@H]12)c1csc(N)n1.[Na+]
Output line: 0.74

====

# Test system: Salmonella typhimurium
# test_protocol: Antimicrobial activity against Salmonella enterica LT2 ATCC 700720 by CLSI method
# Format: functional, Salmonella enterica subsp. enterica serovar Typhimurium
# conditions_used: Salmonella enterica, LT2 ATCC 700720; read-out: MIC100
observed_property: MIC

Input line: Fill blank: measured MIC of the molecule CC(=O)OCC1=C(C(=O)[O-])N2C(=O)[C@@H](NC(=O)CC3C(=O)N(c4ccc(C)c(C)c4)C3c3ccccc3)[C@H]2SC1.[Na+] (mixture of isomers) is ____.
Output line: > 256 µg/mL

Input line: # repeat for CC(=O)OCC1=C(C(=O)[O-])N2C(=O)[C@@H](NC(=O)CCC3C(=O)N(c4ccccc4)C3c3ccccc3)[C@H]2SC1.[Na+] (mixture of isomers)
Output line: > 256 µg/mL

Input line: # repeat for CC(=O)OCC1=C(C(=O)[O-])N2C(=O)[C@@H](NC(=O)CCC3C(=O)N(c4ccc(C)c(C)c4)C3c3ccccc3)[C@H]2SC1.[Na+] (mixture of isomers)
Output line: > 256 µg/mL
